Tested on: BCBL-1 cells
Experiment: RNA-Sequencing of compound-treated vs vehicle-treated cells
Format: cell-based, human
Settings: gene expression, treated vs vehicle BCBL-1 cells
Reported Ratio, CHAC1 values for a set of compounds
Kindly provide the number alone.

Any idea what Ratio, CHAC1 was measured for O=C(CCCCCCC(=O)Nc1ccccc1)NO [SAHA, suberoylanilide hydroxamic acid, reference compound] ?
53.96

Could you tell me which Ratio, CHAC1 is on file for Cc1sc2c(c1C)C(c1ccc(Cl)cc1)=N[C@@H](CC(=O)O[C@H](C)c1ccc(C(=O)Nc3ccccc3N)cc1)c1nnc(C)n1-2 ?
8.345

Continuing:
Reported Ratio, CHAC1, compound Cc1sc2c(c1C)C(c1ccc(Cl)cc1)=N[C@@H](CC(=O)OC(C)(C)C)c1nnc(C)n1-2 [(+)-JQ1, reference compound] : ____
55.65

Consider the compound Cc1sc2c(c1C)C(c1ccc(Cl)cc1)=N[C@@H](CC(=O)O[C@@H](C)c1ccc(C(=O)Nc3ccccc3N)cc1)c1nnc(C)n1-2 and give its measured Ratio, CHAC1.
9.244
